Here the recorded IC50 is given for each entry.
tested.on: LFA-1 binding to immobilized ICAM-1 (Homo sapiens, UniProt P05107+P20701)
Construct: made in house; host or cells: transfected 293 cells (LFA-1)
Sequence (P20701 26-1170): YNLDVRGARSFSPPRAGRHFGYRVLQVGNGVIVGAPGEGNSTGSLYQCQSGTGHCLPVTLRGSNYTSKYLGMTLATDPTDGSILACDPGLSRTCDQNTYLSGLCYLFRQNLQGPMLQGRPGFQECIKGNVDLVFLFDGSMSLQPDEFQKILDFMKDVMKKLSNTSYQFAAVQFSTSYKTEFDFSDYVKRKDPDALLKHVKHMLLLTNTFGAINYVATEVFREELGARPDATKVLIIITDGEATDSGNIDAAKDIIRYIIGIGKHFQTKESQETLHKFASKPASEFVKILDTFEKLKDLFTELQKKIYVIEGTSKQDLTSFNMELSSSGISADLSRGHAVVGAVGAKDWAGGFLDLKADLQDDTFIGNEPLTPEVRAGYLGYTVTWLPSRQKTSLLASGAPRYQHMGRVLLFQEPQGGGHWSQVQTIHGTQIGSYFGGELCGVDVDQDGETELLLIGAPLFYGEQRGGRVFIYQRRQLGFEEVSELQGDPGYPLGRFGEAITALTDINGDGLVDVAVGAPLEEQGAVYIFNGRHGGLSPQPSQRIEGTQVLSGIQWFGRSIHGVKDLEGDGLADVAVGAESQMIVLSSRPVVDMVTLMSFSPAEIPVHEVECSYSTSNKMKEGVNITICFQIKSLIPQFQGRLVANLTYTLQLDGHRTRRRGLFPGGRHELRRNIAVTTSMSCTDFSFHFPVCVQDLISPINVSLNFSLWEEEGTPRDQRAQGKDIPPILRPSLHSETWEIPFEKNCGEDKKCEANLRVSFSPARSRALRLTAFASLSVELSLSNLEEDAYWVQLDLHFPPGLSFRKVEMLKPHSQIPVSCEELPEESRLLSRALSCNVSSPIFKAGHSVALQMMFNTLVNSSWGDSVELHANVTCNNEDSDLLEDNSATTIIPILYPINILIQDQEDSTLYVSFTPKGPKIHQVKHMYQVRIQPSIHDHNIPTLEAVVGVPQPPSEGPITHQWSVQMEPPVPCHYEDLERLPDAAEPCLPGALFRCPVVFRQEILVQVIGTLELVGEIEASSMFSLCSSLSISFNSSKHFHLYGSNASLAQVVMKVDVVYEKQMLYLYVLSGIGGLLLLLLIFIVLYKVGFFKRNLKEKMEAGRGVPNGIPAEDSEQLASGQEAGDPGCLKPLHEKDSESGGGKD
Sequence (P05107 23-769): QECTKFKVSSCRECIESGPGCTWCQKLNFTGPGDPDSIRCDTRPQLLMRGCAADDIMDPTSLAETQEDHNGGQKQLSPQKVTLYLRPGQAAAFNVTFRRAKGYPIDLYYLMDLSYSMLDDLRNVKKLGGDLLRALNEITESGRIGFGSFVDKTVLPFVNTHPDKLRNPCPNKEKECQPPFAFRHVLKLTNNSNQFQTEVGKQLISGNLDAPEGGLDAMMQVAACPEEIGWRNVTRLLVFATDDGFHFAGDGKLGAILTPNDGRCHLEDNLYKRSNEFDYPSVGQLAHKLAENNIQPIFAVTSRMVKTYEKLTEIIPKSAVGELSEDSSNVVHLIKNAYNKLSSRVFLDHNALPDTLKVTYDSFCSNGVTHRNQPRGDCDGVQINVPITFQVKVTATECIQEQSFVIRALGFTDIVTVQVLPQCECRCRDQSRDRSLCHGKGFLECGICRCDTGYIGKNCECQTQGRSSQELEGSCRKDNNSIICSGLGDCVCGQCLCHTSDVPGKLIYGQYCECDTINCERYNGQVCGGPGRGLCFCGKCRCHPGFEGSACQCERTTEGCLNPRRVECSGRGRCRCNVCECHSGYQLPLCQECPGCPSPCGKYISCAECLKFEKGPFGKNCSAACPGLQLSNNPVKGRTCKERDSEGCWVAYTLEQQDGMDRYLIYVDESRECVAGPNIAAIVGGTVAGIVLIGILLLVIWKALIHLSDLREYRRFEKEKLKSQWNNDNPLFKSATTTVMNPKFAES
measurement.notes: LFA-1/ICAM-1 Protein-Protein Assay (solid-phase ELISA)
cond: 5dICAM-Ig coated plates; membrane-bound LFA-1 from transfected 293 cells
Method: LFA-1/ICAM-1 Protein-Protein Assay LFA-1/ICAM-1 antagonist activity, defined as the ability to block LFA-1 binding to immobilized ICAM-1, was quantitated using a solid-phase ELISA. Typically, fusion protein consisting of the entire extracellular domain of human ICAM-1 and the Fc domain of human IgG (5dICAM-Ig) was coated onto 96-well microtiter plates (0.15 μg in 100 μL PBS) overnight at 4° C. […] The plates were then read at 450 nm.
Response body: numeric value in nM, unit text excluded.

Which value of IC50 has been reported for Cc1cc(C(=O)N[C@H](C)c2cccc3ccccc23)cc(C)c1C(=O)N/C(=C\c1ccncc1)C(=O)O [Example 238] in the records?
16.7

Which value of IC50 has been reported for NS(=O)(=O)c1ccc(/C=C(\NC(=O)c2ccc(C(=O)NCc3cccc(O)c3)cc2Cl)C(=O)O)cc1 [Example 323] in the records?
0.84

Which value of IC50 has been reported for O=C(O)/C(=C/c1cnc2ccccc2c1)NC(=O)c1ccc(C(=O)NCc2cccc3[nH]ccc23)cc1Br [Example 255] in the records?
5.82

Which value of IC50 has been reported for Cc1cc(C(=O)N[C@H](C)c2cccc3ccccc23)cc(C)c1C(=O)N/C(=C\c1ccccc1)C(=O)O [Example 237] in the records?
27

The measured values listed here are drawn from patent US6515124B2.
